Compiled pIC50 measurements on UniProt Q13822 taken from the literature.
The value called pIC50 is obtained by taking minus log10 of the concentration in mol/L.

> print(dat)
                                   molecule   tested.system  recorded.metric  measured.result
1  N#Cc1cc(-c2cc(OC3CC3)ccc2F)c(OCc2n[nH]c3ncccc23)cc1Cl  UniProt Q13822            pIC50             8.10

[Q] Returns the measured pIC50 for the input molecule. Input: NS(=O)(=O)c1ccc(C(=O)N2C[C@H]3CCN(C(=O)OCc4cc(Cl)cc(Cl)c4)C[C@@H]3C2)cc1 (racemic)
[A] 8.15

[Q] Next up: Cc1cc(OCc2n[nH]c(=O)n2C)c(-c2cccc(C(=O)NCCC(=O)O)c2)cc1Cl
[A] 7.09

[Q] Next up: CCc1cc(C#N)ccc1OCC(=O)N1CCc2cc(C(=O)N3CCc4[nH]nnc4C3)nn2CC1
[A] 7.92
